Measured values drawn from patent US20240009220A1 for this set.

assay: Oral gavage embryo-fetal development study with compound 16 in rabbits; settings: female, New Zealand White, rabbit, in vivo, po
measurement-type: NOAEL

For CC(C)C(=O)OC[C@H]1O[C@@](C#N)(c2ccc3c(N)ncnn23)[C@H](O)[C@@H]1O the compound record lists NOAEL as 125 mg/kg/day

---

system: SARS-CoV-2 Fluc; assay type: cell-based
measurement-type: Bliss independence consensus score, Average of Replicates

For CC(C)C(=O)OC[C@H]1O[C@@](C#N)(c2ccc3c(N)ncnn23)[C@H](O)[C@@H]1O the compound record lists Bliss independence consensus score, Average of Replicates as 6.15±2.16

For CC(C)C(=O)OC[C@H]1O[C@@H](n2ccc(NO)nc2=O)[C@H](O)[C@@H]1O [molnupiravir, Molnupiravir, reference compound] the compound record lists Bliss independence consensus score, Average of Replicates as −2.47

For N#C[C@@]1(c2ccc3c(N)ncnn23)O[C@H](CO)[C@@H](O)[C@H]1O the compound record lists Bliss independence consensus score, Average of Replicates as 8.00±1.09

For CC(C)(C)[C@H](NC(=O)C(F)(F)F)C(=O)N1C[C@H]2[C@@H]([C@H]1C(=O)N[C@H](C#N)C[C@@H]1CCNC1=O)C2(C)C [nirmatrelvir, reference compound] the compound record lists Bliss independence consensus score, Average of Replicates as 0.13±1.53
